- PROCEDURE TEXT: Half-life in Wistar rat at 1 mg/kg, iv measured upto 24 hrs by LC-MS/MS analysis
- Format: ADME, organism-based
- CONDITION LABEL: in vivo
ATTRIBUTE MEASURED: half-life
Reply with a number, then the unit it belongs to.

Ask: Looking for the measured half-life of O=C1CO[C@H]2CCN(C(=O)N3CCC(Cc4ccc(C(F)(F)F)cc4)CC3)C[C@H]2N1 , can you help?
Reply: 5.1 h

---

- PROCEDURE TEXT: Ratio of drug concentration in C57BL/6 mouse brain to plasma at 24 mg/kg, ip measured upto 7 hrs by LC-MS/MS analysis
ATTRIBUTE MEASURED: Kp at 7 h

Ask: Looking for the measured Kp at 7 h of O=C1CO[C@H]2CCN(C(=O)N3CCC(Cc4ccc(C(F)(F)F)cc4)CC3)C[C@H]2N1 (racemic) , can you help?
Reply: 1.7

---

- PROCEDURE TEXT: Clearance in C57BL/6 mouse at 1.3 mg/kg, iv measured upto 7 hrs by LC-MS/MS analysis
- CONDITION LABEL: in vivo
ATTRIBUTE MEASURED: clearance (mL/min/kg)
Answers are plain numbers, in mL/min/kg.

Ask: Looking for the measured clearance of O=C1CO[C@H]2CCN(C(=O)N3CCC(Cc4ccc(C(F)(F)F)cc4)CC3)C[C@H]2N1 (racemic) , can you help?
Reply: 23

---

- PROCEDURE TEXT: Brain-polar-lipids/water distribution coefficient, LIMBA logD brain of the compound at pH 7.4 incubated for 8 hrs by LIMBA
ATTRIBUTE MEASURED: LIMBA logD brain at 8 h
One number for each entry.

Ask: Looking for the measured LIMBA logD brain at 8 h of O=C1CO[C@H]2CCN(C(=O)N3CCC(Cc4ccc(C(F)(F)F)cc4)CC3)C[C@H]2N1 , can you help?
Reply: 1.8

---

- PROCEDURE TEXT: Ratio of drug concentration in Wistar rat brain to plasma at 10 mg/kg, ip measured upto 7 hrs by LC-MS/MS analysis
- Assay type: ADME, organism-based
ATTRIBUTE MEASURED: Kp at 7 h
Answers are plain numbers.

Ask: Looking for the measured Kp at 7 h of O=C1CO[C@H]2CCN(C(=O)N3CCC(Cc4ccc(C(F)(F)F)cc4)CC3)C[C@H]2N1 , can you help?
Reply: 1.1

---

- PROCEDURE TEXT: Half-life in C57BL/6 mouse at 1.3 mg/kg, iv measured upto 7 hrs by LC-MS/MS analysis
- CONDITION LABEL: in vivo
ATTRIBUTE MEASURED: half-life (h)
One number for each entry, in h.

Ask: Looking for the measured half-life of O=C1CO[C@H]2CCN(C(=O)N3CCC(Cc4ccc(C(F)(F)F)cc4)CC3)C[C@H]2N1 (racemic) , can you help?
Reply: 1.5

---

- PROCEDURE TEXT: Cmax in Wistar rat at 10 mg/kg, ip measured upto 24 hrs by LC-MS/MS analysis
- Format: ADME, organism-based
- CONDITION LABEL: in vivo
ATTRIBUTE MEASURED: Cmax (ng/mL)
Answers are plain numbers, in ng/mL.

Ask: Looking for the measured Cmax of O=C1CO[C@H]2CCN(C(=O)N3CCC(Cc4ccc(C(F)(F)F)cc4)CC3)C[C@H]2N1 , can you help?
Reply: 12200
